Molecular target: Adenosine receptor A3 (Homo sapiens, UniProt P0DMS8)
Sequence (P0DMS8 whole entry): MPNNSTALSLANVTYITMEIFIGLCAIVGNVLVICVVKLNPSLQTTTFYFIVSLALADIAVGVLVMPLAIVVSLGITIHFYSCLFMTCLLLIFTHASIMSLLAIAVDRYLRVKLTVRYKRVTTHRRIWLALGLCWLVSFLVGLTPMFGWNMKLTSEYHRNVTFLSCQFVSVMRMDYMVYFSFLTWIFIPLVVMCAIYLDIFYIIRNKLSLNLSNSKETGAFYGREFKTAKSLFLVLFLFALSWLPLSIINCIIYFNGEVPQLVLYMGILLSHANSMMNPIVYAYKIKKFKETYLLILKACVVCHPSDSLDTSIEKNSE
Metric: Ki (nM)

Solved entries (count: 2):
- Compound: "CCCCC(CC)CNc1ncc(C(=O)O)c2nc(-c3ccco3)nn12 (configuration not stated)"
  Unit: "nM"
  Ki: 16400
- Compound: "CCCCCNc1ncc(C(=O)OCC)c2nc(-c3ccco3)nn12"
  Unit: "nM"
  Ki: 11.3

1: CCOC(=O)c1cnc(N)n2nc(-c3ccco3)nc12
2: CCOC(=O)c1cnc(NCc2ccc(OC)c(OC)c2)n2nc(-c3ccco3)nc12
Query string: For 1 and 2 , which recorded Ki is lower? Please respond with the label that marks your chosen entry.
Result string: 2
(2: 38.7 nM, 1: 238 nM)

---

pKi: −log10 of the molar value.
Adenosine receptor A2a (Homo sapiens, UniProt P29274): recorded pKi for assorted compounds
Sequence (P29274 whole entry): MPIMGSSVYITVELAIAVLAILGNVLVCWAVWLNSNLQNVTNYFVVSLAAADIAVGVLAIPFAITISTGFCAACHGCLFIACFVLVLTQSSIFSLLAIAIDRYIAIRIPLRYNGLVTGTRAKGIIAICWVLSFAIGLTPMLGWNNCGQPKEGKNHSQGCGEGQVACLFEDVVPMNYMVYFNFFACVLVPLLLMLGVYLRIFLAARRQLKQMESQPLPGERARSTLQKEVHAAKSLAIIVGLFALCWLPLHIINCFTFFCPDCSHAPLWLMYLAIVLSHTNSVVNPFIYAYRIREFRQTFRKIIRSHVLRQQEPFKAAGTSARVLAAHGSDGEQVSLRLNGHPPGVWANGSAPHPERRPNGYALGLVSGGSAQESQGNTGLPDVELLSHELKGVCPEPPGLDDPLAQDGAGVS
Metric: pKi

Answered cases to consult:
- Smiles input: "COc1ccc(CNc2ncc(C(=O)O)c3nc(-c4ccco4)nn23)cc1OC"
  Numeric readout: 5.27
- Smiles input: "CCOC(=O)c1cnc(NCC(C)C)n2nc(-c3ccco3)nc12"
  Numeric readout: 7.35
- Smiles input: "CCOC(=O)c1cnc(NCc2ccc(C)cc2)n2nc(-c3ccco3)nc12"
  Numeric readout: 6.91
- Smiles input: "CCCCCNc1ncc(C(=O)OCC)c2nc(-c3ccco3)nn12"
  Numeric readout: 7.30
- Smiles input: "COc1ccc(CNc2ncc(C(=O)NCCc3ccccc3)c3nc(-c4ccco4)nn23)cc1OC"
  Numeric readout: 7.19

P: CCNc1ncc(C(=O)OCC)c2nc(-c3ccco3)nn12
Q: CCOC(=O)c1cnc(NCc2ccc(OC)c(OC)c2)n2nc(-c3ccco3)nc12
Query string: From the items above, decide which of P and Q has the lower pKi reading. # reply format: chosen label
Result string: Q
(Q: 6.94, P: 7.30)

a: CCOC(=O)c1cnc(NCc2ccc(Cl)cc2)n2nc(-c3ccco3)nc12
b: CCOC(=O)c1cnc(NC2CC2)n2nc(-c3ccco3)nc12
c: CCOC(=O)c1cnc(NC(=O)Nc2ccccc2)n2nc(-c3ccco3)nc12
d: CCNc1ncc(C(=O)O)c2nc(-c3ccco3)nn12
e: CCOC(=O)c1cnc(NCC2CCCCC2)n2nc(-c3ccco3)nc12
Query string: hey, can you rank those compounds up there by pKi? biggest number first please Output spec: a listing of the labels in the requested order.
Result string: c, b, a, e, d

a: O=C(Nc1ccccc1)Nc1ncc(C(=O)NCCc2ccccc2)c2nc(-c3ccco3)nn12
b: CCOC(=O)c1cnc(N2CCCC2)n2nc(-c3ccco3)nc12
Query string: Given the two records a and b , choose the one whose pKi value is lower. Pick one and reply with its label.
Result string: b
